Entry source: ChEMBL document CHEMBL2413072

# Test system: MDA-MB-435
# assay summary: Growth inhibition of human MDA-MB-435 cells assessed as cell growth at 10 uM by sulforhodamine B assay
# Format: functional
# experimental setup: read-out: Activity
In this section, each of the compounds is paired with its reported growth at 10 µM.
A number alone suffices; assume %.

Answered examples (4):
smiles structure	readout units	growth at 10 µM
CC1(C)C[C@@H](O)[C@]2(C(=O)O)CC[C@]3(C)C(=CC[C@@H]4[C@@]5(C)CCC(=O)C(C)(C)[C@@H]5CC[C@]43C)[C@@H]2C1	%	102
C/C=C(/C)C(=O)O[C@@H]1CC(C)(C)C[C@H]2C3=CC[C@@H]4[C@@]5(C)CC[C@H](O)C(C)(C)[C@@H]5CC[C@@]4(C)[C@]3(C)CC[C@@]12C(=O)O	%	64.9
COc1cc(/C=C2\C[C@]3(C)[C@H]4CC=C5[C@@H]6CC(C)(C)C[C@@H](O)[C@]6(C(=O)O)CC[C@@]5(C)[C@]4(C)CC[C@H]3C(C)(C)C2=O)ccc1O	%	97.7
CC(C)=CC(=O)O[C@@H]1CC(C)(C)C[C@H]2C3=CC[C@@H]4[C@@]5(C)CCC(=O)C(C)(C)[C@@H]5CC[C@@]4(C)[C@]3(C)CC[C@@]12C(=O)O	%	89.6

Next up:
State the recorded growth at 10 µM for this entry: `C/C=C(/C)C(=O)O[C@@H]1CC(C)(C)C[C@H]2C3=CC[C@@H]4[C@@]5(C)CCC(=O)C(C)(C)[C@@H]5CC[C@@]4(C)[C@]3(C)CC[C@@]12C(=O)O`
87.8
